Numbers sourced from paper doi:10.1101/2022.07.20.500788.

pKd reference
# TARGET: HsAGO2+At-loop (human, UniProt Q9UKV8 1-601+Q9XGW1:713-720+609-859, internal_change)
# ASSAY_INFO: filter binding
To interpret pKd, take it as minus log10 of a concentration measured in moles per litre.

guide RNA / 2-8 target (mixed) RNA 1: UGGAGUGUGACAAUGGUGUUU RNA 2: AAAAAAAAAAAAAACACUCCAAA	8.19

// recorded pKd for guide RNA / 2-21 target (mixed) RNA 1: UGGAGUGUGACAAUGGUGUUU RNA 2: AAACACCAUUGUCACACUCCAAA : 11.30
